molecular target: Human HER3, endogenous, on human cancer cell lines (SK-Br-3, MCF7, BT-474) (human, UniProt P21860 20-1342); test: cell-based or functional assay
Sequence (P21860 20-1342): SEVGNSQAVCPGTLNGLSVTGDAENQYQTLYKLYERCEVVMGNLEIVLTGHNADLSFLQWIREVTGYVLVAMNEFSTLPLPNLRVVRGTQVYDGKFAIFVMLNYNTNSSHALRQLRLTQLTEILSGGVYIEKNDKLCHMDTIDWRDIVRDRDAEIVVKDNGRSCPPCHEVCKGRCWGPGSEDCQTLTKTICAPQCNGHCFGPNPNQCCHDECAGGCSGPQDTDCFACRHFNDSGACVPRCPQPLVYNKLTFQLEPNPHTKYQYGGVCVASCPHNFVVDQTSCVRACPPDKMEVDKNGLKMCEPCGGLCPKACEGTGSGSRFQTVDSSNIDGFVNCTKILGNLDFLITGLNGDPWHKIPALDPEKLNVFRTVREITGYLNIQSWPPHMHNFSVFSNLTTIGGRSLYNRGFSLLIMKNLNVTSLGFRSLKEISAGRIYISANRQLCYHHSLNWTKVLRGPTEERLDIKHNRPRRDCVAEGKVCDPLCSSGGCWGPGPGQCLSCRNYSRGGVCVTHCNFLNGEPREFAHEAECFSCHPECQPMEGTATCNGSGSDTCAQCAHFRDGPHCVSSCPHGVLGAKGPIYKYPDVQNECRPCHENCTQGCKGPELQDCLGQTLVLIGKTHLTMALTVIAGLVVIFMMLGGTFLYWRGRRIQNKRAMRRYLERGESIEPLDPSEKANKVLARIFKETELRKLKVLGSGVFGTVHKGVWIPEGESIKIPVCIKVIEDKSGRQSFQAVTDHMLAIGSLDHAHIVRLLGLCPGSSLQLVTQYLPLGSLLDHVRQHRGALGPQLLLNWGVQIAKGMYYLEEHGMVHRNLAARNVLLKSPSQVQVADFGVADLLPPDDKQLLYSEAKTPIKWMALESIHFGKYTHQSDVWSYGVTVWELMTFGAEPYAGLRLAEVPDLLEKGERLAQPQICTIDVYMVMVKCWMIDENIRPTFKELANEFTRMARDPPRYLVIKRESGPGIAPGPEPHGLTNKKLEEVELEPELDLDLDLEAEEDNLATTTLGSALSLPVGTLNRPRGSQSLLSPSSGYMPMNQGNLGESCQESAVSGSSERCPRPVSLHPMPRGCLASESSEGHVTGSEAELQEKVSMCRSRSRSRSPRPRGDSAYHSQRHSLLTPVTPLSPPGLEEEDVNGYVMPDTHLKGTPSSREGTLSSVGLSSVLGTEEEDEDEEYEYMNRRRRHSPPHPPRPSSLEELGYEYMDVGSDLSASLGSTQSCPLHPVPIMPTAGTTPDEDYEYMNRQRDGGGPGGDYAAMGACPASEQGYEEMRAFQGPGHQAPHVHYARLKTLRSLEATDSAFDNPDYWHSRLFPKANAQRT
ENDPOINT_NAME: SK-Br-3 proliferation % inhibition (%)
Note: unit % is implicit; provide only the numeric part.

Worked cases, answers included:
1. MOR12924 (antibody, human IgG1, kappa, V domains shown) VH: QVQLVQSGAEVKKPGESLKISCKGSGYSFTNSWVAWVRQMPGKGLEWMGIIYPGNSDTIYSPSFQGQVTISADKSISTAYLQWSSLKASDTAMYYCARVHIIQPPSAWSYNAMDVWGQGTLVTVSS VL: DIQMTQSPSSLSASVGDRVTITCRASQSISTYLNWYQQKPGKAPKLLIFGASNLQSGVPSRFSGSGSGTDFTLTISSLQPEDFATYYCQQSVWEPATFGQGTKVEIKR :: 44
2. MOR12923 (antibody, human IgG1, kappa, V domains shown) VH: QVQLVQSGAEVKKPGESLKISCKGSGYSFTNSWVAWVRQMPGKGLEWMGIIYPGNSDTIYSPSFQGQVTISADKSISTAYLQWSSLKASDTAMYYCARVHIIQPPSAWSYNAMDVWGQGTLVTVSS VL: DIQMTQSPSSLSASVGDRVTITCRASQSISTYLNWYQQKPGKAPKLLIFGASNLQSGVPSRFSGSGSGTDFTLTISSLQPEDFATYYCQQSMYLPFTFGQGTKVEIKR :: 42
3. MOR14536 (antibody, human IgG1, kappa, V domains shown, tested as IgG) VH: EVQLVQSGAEVKKPGESLKISCKGSGYSFSNYWIAWVRQMPGKGLEWMGIIYPGQSDTIYSPSFQGQVTISADKSISTAYLQWSSLKASDTAMYYCARVHIIQPPSAWSYNAMDVWGQGTLVTVSS VL: DIQMTQSPSSLSASVGDRVTITCRASQSISTYLNWYQQKPGKAPKLLIYGASNLQSGVPSRFSGSGSGTDFTLTISSLQPEDFATYYCQQSITELFTFGQGTKVEIKR :: 56

Query :: # get_value(readout='SK-Br-3 proliferation % inhibition', item= MOR13754 (antibody, human IgG1, kappa, V domains shown, tested as IgG) VH: QVQLVQSGAEVKKPGESLKISCKGSGYSFTSYWVAWVRQMPGKGLEWMGIIYPGGSDTIYSPSFQGQVTISADKSISTAYLQWSSLKASDTAMYYCARVHIIQPPSAWSYNAMDVWGQGTLVTVSS VL: DIQMTQSPSSLSASVGDRVTITCRASQSISTYLNWYQQKPGKAPKLLIFGASNLQSGVPSRFSGSGSGTDFTLTISSLQPEDFATYYCQQSITELFTFGQGTKVEIKR )
Result :: 40

Query :: Find the recorded SK-Br-3 proliferation % inhibition belonging to MOR13750 (antibody, human IgG1, kappa, V domains shown, tested as IgG) VH: QVQLVQSGAEVKKPGESLKISCKGSGYSFTSSWVAWVRQMPGKGLEWMGIIYPGGSDTIYSPSFQGQVTISADKSISTAYLQWSSLKASDTAMYYCARVHIIQPPSAWSYNAMDVWGQGTLVTVSS VL: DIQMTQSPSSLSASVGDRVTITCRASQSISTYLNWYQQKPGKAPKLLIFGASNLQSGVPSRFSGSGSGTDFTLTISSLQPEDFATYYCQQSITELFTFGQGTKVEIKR and report it.
Result :: 34
